Data provenance is patent US20190001002A1.

TEST_SUMMARY: Pharmacokinetic modeling of active element (iodine or tantalum) concentration in pig blood/plasma after contrast agent injection
Format: in vivo
CONDITIONS: plasma, other: injection, FIG. 3, read-out: distribution-phase half-life (T½a) in plasma
PARAMETER_MEASURED: half-life

## Input // query half-life value for entry COCC(=O)Nc1c(I)c(C(=O)NCC(O)CO)c(I)c(C(=O)N(C)CC(O)CO)c1I (stereo not shown) [iopromide]
## Output < 5 min
